- assaySystem: Axl enzyme (Homo sapiens, UniProt P30530)
- Sequence (P30530 26-894): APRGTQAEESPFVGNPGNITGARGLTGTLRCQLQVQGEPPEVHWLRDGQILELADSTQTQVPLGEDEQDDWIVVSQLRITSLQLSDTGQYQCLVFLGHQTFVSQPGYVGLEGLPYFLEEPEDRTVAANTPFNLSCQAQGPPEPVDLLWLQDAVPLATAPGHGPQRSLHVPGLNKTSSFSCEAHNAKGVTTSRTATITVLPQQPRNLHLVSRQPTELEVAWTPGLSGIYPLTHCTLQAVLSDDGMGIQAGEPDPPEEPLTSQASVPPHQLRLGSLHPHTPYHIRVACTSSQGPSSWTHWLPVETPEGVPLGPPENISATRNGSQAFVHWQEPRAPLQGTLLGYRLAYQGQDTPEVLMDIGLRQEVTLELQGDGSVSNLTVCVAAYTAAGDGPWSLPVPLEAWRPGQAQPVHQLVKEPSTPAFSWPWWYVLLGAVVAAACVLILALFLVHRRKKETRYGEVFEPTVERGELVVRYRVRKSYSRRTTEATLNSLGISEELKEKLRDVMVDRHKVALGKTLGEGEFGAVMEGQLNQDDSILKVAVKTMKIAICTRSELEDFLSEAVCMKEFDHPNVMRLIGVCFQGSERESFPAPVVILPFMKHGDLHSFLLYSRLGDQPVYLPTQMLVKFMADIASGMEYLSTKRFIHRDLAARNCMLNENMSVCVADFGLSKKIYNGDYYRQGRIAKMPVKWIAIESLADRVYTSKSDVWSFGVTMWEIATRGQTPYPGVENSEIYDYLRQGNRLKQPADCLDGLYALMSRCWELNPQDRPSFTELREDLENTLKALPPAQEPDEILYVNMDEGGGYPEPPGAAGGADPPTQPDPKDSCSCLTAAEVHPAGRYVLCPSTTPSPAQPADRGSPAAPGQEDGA
Where a name gives a salt, the structure may show the parent alone.
reportedMetric: IC50 (nM)
Respond with the bare value in nM.

Cn1cc(-c2ccc(NC(=O)c3cc4c(n(-c5ccccc5)c3=O)CC3(CC3)CC4=O)nc2)c2c(N)ncnc21 [Example 45(24)]: 9.7

Here's the next entry for you.
Lab note: Cn1cc(-c2ccc(NC(=O)c3cc(C(F)(F)F)cn(-c4ccccc4)c3=O)cc2)c2c(N)ncnc21 [Example 30, trifluoroacetate] gave IC50 of 8
